Test system: recombinant human CD3ε/δ heterodimer (human) (UniProt P07766)
Sequence (P07766 23-126, stated change not applied, chain 1 of 2): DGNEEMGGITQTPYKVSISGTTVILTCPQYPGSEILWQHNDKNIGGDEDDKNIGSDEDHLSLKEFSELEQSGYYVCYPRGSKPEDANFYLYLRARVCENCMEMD
Sequence (P04234 22-105, stated change not applied, chain 2 of 2, further chain): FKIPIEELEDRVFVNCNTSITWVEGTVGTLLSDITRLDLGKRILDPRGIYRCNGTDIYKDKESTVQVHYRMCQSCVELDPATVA
Method summary: BLI (Octet), antigen on anti-Penta His sensor, antibody 50 nM
The label depends only on kon: Satisfied if it is at least 300000 M⁻¹ s⁻¹, Not satisfied if it is smaller.

Field: example entries. Status: answers known.
A16 (antibody, human IgG1, lambda, L234A L235A, V domains shown) VH: EVQLVESGGGLVQPGGSLKLSCAASGFTFNTYAMNWVRQASGKGLEWVGRIRSKYNNYATYYADSVKDRFTISRDDSKNTAYLQMNSLKTEDTAVYYCVRHGNFGNSYVSWFAYWGQGTLVTVSS VL: QAVVTQEPSLTVSPGGTVTLTCRSSTGAVTTSNYANWVQQKPGQAPRGLIGGTNKRAPWTPARFSGSLLGDKAALTLSGAQPEDEAEYYCALWYSNLWVFGGGTKLTVLG	Not satisfied
B08 (antibody, human IgG1, lambda, L234A L235A, V domains shown) VH: EVQLVESGGGLVQPGGSLKLSCAASGFTFNTYAMNWVRQASGKGLEWVGRIRSKYNNYATYYADSVKDRFTISRDDSKNTLYLQMNSLKTEDTAVYYCVRHGNFGNSYVSWFAYWGQGTLVTVSS VL: QAVVTQEPSLTVSPGGTVTLTCRSSTGAVTTSNYANWFQQKPGQAPRGLIGGTNKRAPWTPARFSGSLLGDKAALTLSGAQPEDEAEYYCALWYSNLWVFGGGTKLTVLG	Not satisfied
F16 (antibody, human IgG1, lambda, L234A L235A, V domains shown) VH: EVQLVESGGGLVQPGGSLKLSCAASGFTFNTYAMNWVRQASGKGLEWVARIRSKYNNYATYYADSVKDRFTISRDDSKNTLYLQMNSLKTEDTAVYYCVRHGNFGNSYVSWFAYWGQGTLVTVSS VL: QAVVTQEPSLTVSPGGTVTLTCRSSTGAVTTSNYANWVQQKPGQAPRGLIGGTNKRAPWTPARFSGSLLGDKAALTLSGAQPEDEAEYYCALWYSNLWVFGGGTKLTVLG	Not satisfied
C08 (antibody, human IgG1, lambda, L234A L235A, V domains shown) VH: EVQLVESGGGLVQPGGSLKLSCAASGFTFNTYAMNWVRQASGKGLEWVGRIRSKYNNYATYYADSVKDRFTISRDDSQSTAYLQMNSLKTEDTAVYYCVRHGNFGNSYVSWFAYWGQGTLVTVSS VL: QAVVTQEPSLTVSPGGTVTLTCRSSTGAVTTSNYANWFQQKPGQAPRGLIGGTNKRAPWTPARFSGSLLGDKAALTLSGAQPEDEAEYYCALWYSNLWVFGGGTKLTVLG	Not satisfied
B15 (antibody, human IgG1, lambda, L234A L235A, V domains shown) VH: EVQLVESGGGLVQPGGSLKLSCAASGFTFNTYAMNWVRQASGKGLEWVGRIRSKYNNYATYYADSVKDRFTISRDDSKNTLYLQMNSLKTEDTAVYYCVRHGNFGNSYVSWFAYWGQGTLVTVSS VL: QAVVTQEPSLTVSPGGTVTLTCRSSTGAVTTSNYANWVQQKPGQAPRGLIGGTNKRAPWTPARFSGSLLGGKAALTLSGAQPEDEAEYYCALWYSNLWVFGGGTKLTVLG	Satisfied
B07 (antibody, human IgG1, lambda, L234A L235A, V domains shown) VH: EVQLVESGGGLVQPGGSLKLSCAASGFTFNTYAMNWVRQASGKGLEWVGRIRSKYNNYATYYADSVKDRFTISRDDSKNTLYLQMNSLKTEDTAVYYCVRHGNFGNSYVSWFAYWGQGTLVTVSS VL: QAVVTQEPSLTVSPGGTVTLTCRSSTGAVTTSNYANWFQQKPGQAPRGLIGGTNKRAPWTPARFSGSLLGGKAALTLSGAQPEDEAEYYCALWYSNLWVFGGGTKLTVLG	Not satisfied

Query :: Decide: kon of Mouse human chimeric SP34 IgG1 antibody (antibody, V domains shown) VH: EVQLVESGGGLVQPKGSLKLSCAASGFTFNTYAMNWVRQAPGKGLEWVARIRSKYNNYATYYADSVKDRFTISRDDSQSILYLQMNNLKTEDTAMYYCVRHGNFGNSYVSWFAYWGQGTLVTVSS VL: QAVVTQESALTTSPGETVTLTCRSSTGAVTTSNYANWVQEKPDHLFTGLIGGTNKRAPGVPARFSGSLIGDKAALTITGAQTEDEAIYFCALWYSNLWVFGGGTKLTVLG >= 300000 M⁻¹ s⁻¹?
Result :: Not satisfied

Query :: Similarly, D07 (antibody, human IgG1, lambda, L234A L235A, V domains shown) VH: EVQLVESGGGLVQPGGSLKLSCAASGFTFNTYAMNWVRQASGKGLEWVGRIRSKYNNYATYYADSVKDRFTISRDDSQSTLYLQMNSLKTEDTAVYYCVRHGNFGNSYVSWFAYWGQGTLVTVSS VL: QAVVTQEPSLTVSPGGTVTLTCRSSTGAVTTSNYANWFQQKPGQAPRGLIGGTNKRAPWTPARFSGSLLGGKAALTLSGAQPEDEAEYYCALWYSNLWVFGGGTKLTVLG ?
Result :: Not satisfied

Query :: Now consider F15 (antibody, human IgG1, lambda, L234A L235A, V domains shown) VH: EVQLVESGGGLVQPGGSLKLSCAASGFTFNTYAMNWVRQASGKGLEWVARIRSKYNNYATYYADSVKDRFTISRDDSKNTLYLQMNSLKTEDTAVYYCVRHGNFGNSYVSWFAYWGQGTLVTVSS VL: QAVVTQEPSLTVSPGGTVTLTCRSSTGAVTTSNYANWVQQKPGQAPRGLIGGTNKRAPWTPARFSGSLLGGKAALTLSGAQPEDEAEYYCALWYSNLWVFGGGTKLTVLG .
Result :: Not satisfied

Query :: Now the binder D15 (antibody, human IgG1, lambda, L234A L235A, V domains shown) VH: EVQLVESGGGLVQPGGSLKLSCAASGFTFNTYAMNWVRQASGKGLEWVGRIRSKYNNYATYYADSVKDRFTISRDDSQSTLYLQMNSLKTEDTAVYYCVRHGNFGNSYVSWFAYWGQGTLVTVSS VL: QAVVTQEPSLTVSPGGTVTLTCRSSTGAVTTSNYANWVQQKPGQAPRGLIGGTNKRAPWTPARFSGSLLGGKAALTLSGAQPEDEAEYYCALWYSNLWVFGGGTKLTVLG
Result :: Satisfied
